# pIC50 measurements, system: UniProtKB P14780
Numbers only, as −log10 of the molar value.

Some solved entries appear below for comparison.
Req: Please state recorded pIC50 (tested on UniProtKB P14780) of COc1ccc(S(=O)(=O)N2CCCN(C(=O)OC(C)(C)C)CC2C(=O)NO)cc1 (stereo not given)
Resp: 8.04

Req: Please state recorded pIC50 (tested on UniProtKB P14780) of COc1ccc(S(=O)(=O)N2CCCN(C(=O)c3ccccc3-c3ccccc3)CC2C(=O)NO)cc1 (stereo not given)
Resp: 8.48

Req: Please state recorded pIC50 (tested on UniProtKB P14780) of O=C(NO)C1CN(C(=O)c2ccccc2)CCCN1S(=O)(=O)c1ccc(Oc2ccccc2)cc1 (stereo not given)
Resp: 8.92

Req: Please state recorded pIC50 (tested on UniProtKB P14780) of COc1ccc(S(=O)(=O)N2CCCN(C(=O)N[C@@H](C)c3ccccc3)CC2C(=O)NO)cc1 (stereo not given in full)
Resp: 8.04

More entries:
Req: Please state recorded pIC50 (tested on UniProtKB P14780) of COc1ccc(S(=O)(=O)N2CCCN(Cc3ccccc3)CC2C(=O)NO)cc1 (stereo not given)
Resp: 7.51

---

# pIC50 measurements, system: Matrix metalloproteinase-9 (Homo sapiens)
# Sequence (P14780 whole entry): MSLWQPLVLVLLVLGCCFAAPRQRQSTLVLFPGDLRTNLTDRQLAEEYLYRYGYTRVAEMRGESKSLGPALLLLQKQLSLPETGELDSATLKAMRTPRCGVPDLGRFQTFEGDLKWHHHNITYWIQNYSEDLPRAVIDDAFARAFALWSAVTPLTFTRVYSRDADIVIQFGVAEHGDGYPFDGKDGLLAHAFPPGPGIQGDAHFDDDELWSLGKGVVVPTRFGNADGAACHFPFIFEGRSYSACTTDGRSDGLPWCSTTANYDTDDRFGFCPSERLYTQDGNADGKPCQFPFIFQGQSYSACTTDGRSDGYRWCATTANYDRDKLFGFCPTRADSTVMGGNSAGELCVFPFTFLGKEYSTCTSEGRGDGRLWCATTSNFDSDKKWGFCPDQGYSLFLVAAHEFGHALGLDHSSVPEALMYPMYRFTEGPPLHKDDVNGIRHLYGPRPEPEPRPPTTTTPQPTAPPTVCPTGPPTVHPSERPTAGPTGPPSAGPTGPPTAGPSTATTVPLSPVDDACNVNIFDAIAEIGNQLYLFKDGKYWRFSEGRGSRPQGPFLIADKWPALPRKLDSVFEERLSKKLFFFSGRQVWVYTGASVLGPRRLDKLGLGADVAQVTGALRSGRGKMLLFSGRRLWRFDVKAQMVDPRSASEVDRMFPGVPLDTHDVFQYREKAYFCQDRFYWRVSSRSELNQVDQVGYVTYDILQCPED
Give bare numbers, as −log10 of the molar value.

Some solved entries appear below for comparison.
Req: Fill in: pIC50 of COc1ccc(S(=O)(=O)N2CCCN(C(=O)CN)CC2C(=O)NO)cc1 (configuration not stated) is ___
Resp: 6.80

Req: Fill in: pIC50 of COc1ccc(S(=O)(=O)N2CCCN(C(=O)Nc3ccccc3)CC2C(=O)NO)cc1 (configuration not stated) is ___
Resp: 7.74

Req: Fill in: pIC50 of COc1ccc(S(=O)(=O)N2CCCN(C(=O)c3ccccc3)CC2C(=O)NO)cc1 (configuration not stated) is ___
Resp: 8.70

Req: Fill in: pIC50 of COc1ccc(S(=O)(=O)N2CCCNCC2C(=O)NO)cc1 (configuration not stated) is ___
Resp: 7.22

Req: Fill in: pIC50 of COc1ccc(S(=O)(=O)N2CCCN(C(=O)CNC(=O)OC(C)(C)C)CC2C(=O)NO)cc1 (configuration not stated) is ___
Resp: 7.64

Req: Fill in: pIC50 of COc1ccc(S(=O)(=O)N2CCCN(C(=O)c3ccc(OC(F)(F)F)cc3)CC2C(=O)NO)cc1 (configuration not stated) is ___
Resp: 8.40

For the next question, use this compound.
Req: Fill in: pIC50 of COc1ccc(S(=O)(=O)N2CCCN(C(=O)C(C)(C)C)CC2C(=O)NO)cc1 (configuration not stated) is ___
Resp: 8.32

---

- targetSystem: Collagenase 3 (Homo sapiens, UniProt P45452)
pIC50: −log10 of the molar value.
Cut-off 8 on pIC50, inclusive. At or above means Met; below means Not met.

Req: Quick check: does COc1ccc(S(=O)(=O)N2CCCN(C(=O)CN)CC2C(=O)NO)cc1 (configuration not stated) have pIC50 greater than or equal to 8?
Resp: Not met

Req: Quick check: does COc1ccc(S(=O)(=O)N2CCCN(C(=O)c3ccccc3)CC2C(=O)NO)cc1 (configuration not stated) have pIC50 greater than or equal to 8?
Resp: Met

Req: Quick check: does COc1ccc(S(=O)(=O)N2CCCNCC2C(=O)NO)cc1 (configuration not stated) have pIC50 greater than or equal to 8?
Resp: Met

More entries:
Req: Quick check: does COc1ccc(S(=O)(=O)N2CCCN(C(=O)c3ccccc3-c3ccccc3)CC2C(=O)NO)cc1 (configuration not stated) have pIC50 greater than or equal to 8?
Resp: Met

Req: Quick check: does COc1ccc(S(=O)(=O)N2CCCN(C(=O)OC(C)(C)C)CC2C(=O)NO)cc1 (configuration not stated) have pIC50 greater than or equal to 8?
Resp: Not met

Req: Quick check: does COc1ccc(S(=O)(=O)N2CCCN(Cc3ccccc3)CC2C(=O)NO)cc1 (configuration not stated) have pIC50 greater than or equal to 8?
Resp: Not met

Req: Quick check: does O=C(NO)C1CN(C(=O)c2ccccc2)CCCN1S(=O)(=O)c1ccc(Oc2ccccc2)cc1 (configuration not stated) have pIC50 greater than or equal to 8?
Resp: Met

---

Please go through the items and note down their IC50.
- targetSystem: Interstitial collagenase (Homo sapiens, UniProt P03956)
- Sequence (P03956 whole entry): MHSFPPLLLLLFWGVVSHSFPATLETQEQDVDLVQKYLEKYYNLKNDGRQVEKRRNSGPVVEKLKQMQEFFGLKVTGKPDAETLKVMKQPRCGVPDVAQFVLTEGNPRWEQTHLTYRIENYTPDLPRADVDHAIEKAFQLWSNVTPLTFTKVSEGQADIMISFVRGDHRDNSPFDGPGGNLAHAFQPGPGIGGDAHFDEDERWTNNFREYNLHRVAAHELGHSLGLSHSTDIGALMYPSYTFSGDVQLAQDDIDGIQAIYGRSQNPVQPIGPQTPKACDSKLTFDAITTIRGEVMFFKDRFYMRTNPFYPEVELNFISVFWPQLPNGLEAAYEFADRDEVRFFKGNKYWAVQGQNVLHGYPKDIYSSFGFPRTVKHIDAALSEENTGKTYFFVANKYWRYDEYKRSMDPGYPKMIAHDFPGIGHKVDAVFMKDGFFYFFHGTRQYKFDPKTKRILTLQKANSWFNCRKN
Answers are plain numbers, in nM.

Some solved entries appear below for comparison.
Req: Fill in: IC50 of COc1ccc(S(=O)(=O)N2CCCN(C(=O)c3ccccc3)CC2C(=O)NO)cc1 (stereo not drawn) is ___
Resp: 45

Req: Fill in: IC50 of COc1ccc(S(=O)(=O)N2CCCNCC2C(=O)NO)cc1 (stereo not drawn) is ___
Resp: 91

For the next question, use this compound.
Req: Fill in: IC50 of COc1ccc(S(=O)(=O)N2CCCN(C(=O)c3ccc(OC(F)(F)F)cc3)CC2C(=O)NO)cc1 (stereo not drawn) is ___
Resp: 128

---

Please go through the items and note down their IC50.
Protein target, amino acids: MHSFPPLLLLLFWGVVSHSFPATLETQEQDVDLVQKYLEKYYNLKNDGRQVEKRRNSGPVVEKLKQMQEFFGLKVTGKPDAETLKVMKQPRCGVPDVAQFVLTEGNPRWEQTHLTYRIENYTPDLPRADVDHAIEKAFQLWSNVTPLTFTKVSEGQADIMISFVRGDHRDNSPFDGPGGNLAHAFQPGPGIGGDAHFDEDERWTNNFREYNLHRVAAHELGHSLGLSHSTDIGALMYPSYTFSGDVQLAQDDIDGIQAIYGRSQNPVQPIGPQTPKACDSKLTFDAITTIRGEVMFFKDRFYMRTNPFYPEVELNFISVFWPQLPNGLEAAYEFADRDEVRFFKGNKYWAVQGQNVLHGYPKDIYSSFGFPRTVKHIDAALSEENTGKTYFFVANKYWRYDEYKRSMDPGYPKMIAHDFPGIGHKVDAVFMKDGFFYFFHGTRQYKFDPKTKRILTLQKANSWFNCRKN
Answers are plain numbers, in nM.

Some solved entries appear below for comparison.
Req: Fill in: IC50 of COc1ccc(S(=O)(=O)N2CCCN(C(=O)CNC(=O)OC(C)(C)C)CC2C(=O)NO)cc1 (stereo not drawn) is ___
Resp: 690

Req: Fill in: IC50 of COc1ccc(S(=O)(=O)N2CCCN(C(=O)CN)CC2C(=O)NO)cc1 (stereo not drawn) is ___
Resp: 703

For the next question, use this compound.
Req: Fill in: IC50 of COc1ccc(S(=O)(=O)N2CCCN(C(=O)N[C@@H](C)c3ccccc3)CC2C(=O)NO)cc1 (stereo partly drawn) is ___
Resp: 312

---

# pIC50 measurements, system: Collagenase 3 (Homo sapiens, UniProt P45452)
Numbers only, as −log10 of the molar value.

Req: Please state recorded pIC50 (tested on Collagenase 3 (Homo sapiens, UniProt P45452)) of COc1ccc(S(=O)(=O)N2CCCN(C(=O)Nc3ccccc3)CC2C(=O)NO)cc1 (stereo not given)
Resp: 7.77

Req: Please state recorded pIC50 (tested on Collagenase 3 (Homo sapiens, UniProt P45452)) of COc1ccc(S(=O)(=O)N2CCCN(C(=O)C(C)(C)C)CC2C(=O)NO)cc1 (stereo not given)
Resp: 7.96

Req: Please state recorded pIC50 (tested on Collagenase 3 (Homo sapiens, UniProt P45452)) of COc1ccc(S(=O)(=O)N2CCCN(C(=O)CNC(=O)OC(C)(C)C)CC2C(=O)NO)cc1 (stereo not given)
Resp: 7.80

Req: Please state recorded pIC50 (tested on Collagenase 3 (Homo sapiens, UniProt P45452)) of COc1ccc(S(=O)(=O)N2CCCN(C(=O)c3ccc(OC(F)(F)F)cc3)CC2C(=O)NO)cc1 (stereo not given)
Resp: 8.21

For the next question, use this compound.
Req: Please state recorded pIC50 (tested on Collagenase 3 (Homo sapiens, UniProt P45452)) of COc1ccc(S(=O)(=O)N2CCCN(C(=O)N[C@@H](C)c3ccccc3)CC2C(=O)NO)cc1 (stereo not given in full)
Resp: 7.98
